Quick reference: B-score of the listed items.
# Target Or Test System: Inward rectifier potassium channel 2 (Mus musculus) (UniProt P35561)
# Sequence (P35561 whole entry, looked up): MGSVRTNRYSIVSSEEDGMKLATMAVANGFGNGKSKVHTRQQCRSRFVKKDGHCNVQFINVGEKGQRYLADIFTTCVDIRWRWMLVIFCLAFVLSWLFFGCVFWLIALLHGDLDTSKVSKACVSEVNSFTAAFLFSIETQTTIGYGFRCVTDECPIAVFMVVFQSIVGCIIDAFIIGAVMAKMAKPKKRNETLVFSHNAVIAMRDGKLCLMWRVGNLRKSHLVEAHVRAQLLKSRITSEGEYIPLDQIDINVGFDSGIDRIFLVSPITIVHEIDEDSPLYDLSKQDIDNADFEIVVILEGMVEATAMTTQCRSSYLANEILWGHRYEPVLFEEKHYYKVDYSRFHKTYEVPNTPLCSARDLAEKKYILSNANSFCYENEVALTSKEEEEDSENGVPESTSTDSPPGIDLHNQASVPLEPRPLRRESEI
# Measurement Protocol: blocks the mouse Kir2.1 inward-rectifier potassium channel (AID 1672);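 note: channel flux triggered by added potassium and thallium sulfate stimulus; B-score of peak minus minimum fluorescence over baseline after thallium stimulus; more negative B-score means stronger Kir2.1 block with less thallium influx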
# Study Conditions: HEK293-Kir2.1, FluxOR thallium flux fluorescence; at 10 µM; stronger effect = lower value
Hit rate of the full screen: of about 310,000 compounds, about 2,600 (0.84%) were called active. The entries come from a sample that favours actives as a whole.
// return a plain number; no unit text

Worked cases, answers included:
Compound	Target Or Test System	B-score
O=C(CN1CCOCC1)Nc1cccc([N+](=O)[O-])c1	Inward rectifier potassium channel 2 (Mus musculus) (UniProt P35561)	-1.26
Cc1ccc2nc(NC(=O)C3CSC4(C)CCC(=O)N34)sc2c1 (stereo unspecified)	Inward rectifier potassium channel 2 (Mus musculus) (UniProt P35561)	-0.28
CCCOc1ccc(Cn2ccnc2)cc1[N+](=O)[O-]	Inward rectifier potassium channel 2 (Mus musculus) (UniProt P35561)	-0.79
COc1ccccc1CC(=O)NCCc1c[nH]c2ccccc12	Inward rectifier potassium channel 2 (Mus musculus) (UniProt P35561)	-0.19
CCCC(=O)N1CCc2[nH]c3ccccc3c2C1	Inward rectifier potassium channel 2 (Mus musculus) (UniProt P35561)	0.74

Notebook: pull reported B-score for Inward rectifier potassium channel 2 (Mus musculus) (UniProt P35561), entry CSCC(=O)N1CCCC(C(=O)c2cc(F)ccc2F)C1 (stereo unspecified)
1.27

Same read-out for CCS(=O)(=O)c1cc([N+](=O)[O-])c(Sc2ccccc2N)s1 ?
0.71

Same read-out for COc1ccc(CN2CCC(c3nc4ccc(Cl)cc4[nH]3)CC2)cc1 ?
-7.29
